# Tested on: HCT-116 colon
# EXPERIMENT_SUMMARY: NCI-60 one-dose screen, 48 h (100 = growth as untreated, 0 = no growth, -100 = all killed)
# CONDITIONS: 10 µM unless noted
# Method: Growth inhibition of the HCT-116 human tumor cell line is measured as a screen for anti-cancer activity. Cells are grown in 96 well plates and exposed to the test compound for 48 hours. Compounds are tested at a single concentration, which is 10^-5 M for most compounds. The reported endpoint is percent growth (GI% or GIPRCNT), where numbers from 0 - 100% represent growth inhibition, and numbers from -100% - 0 represent cell death. For example, a value of 40 represents 60% growth inhibition. […]
About 83,000 compounds went through this panel and 20% of them were active in at least one assay; those are over-represented in the sample as a whole. The source made the active and inactive calls. The calls were made as follows: active = growth percent below 10; inactive = the rest.
READOUT_TYPE: growth

Field: example entries. Status: answers known.
COMPOUND | VALUE_OBSERVED
COc1ccc2c(c1)CCCC21C(=O)Nc2c(Cl)cccc21 (configuration not stated) | 49.5% (inactive)
Cc1cc2nc3c(=O)[nH]c(=O)nc-3n(CC=O)c2cc1C | 106% (inactive)

Q) # growth lookup, item COc1cccc(NC(=O)c2c(-c3ccccc3)c(-c3ccccc3)n[nH]c2=O)c1
A) 94.9% (inactive)

Q) # growth lookup, item O=C1OCC2=C1C(c1ccc(Cl)c(Cl)c1)c1cc3c(cc1N2CCO)CCC3 (configuration not stated)
A) 18.3% (inactive)

Q) # growth lookup, item CCCCNCC(O)c1cc2c(Cl)cc(Cl)cc2c2cc(C(F)(F)F)ccc12 (configuration not stated)
A) -91.7% (active)

Q) # growth lookup, item CCOc1cccc(/C=N/NC(=O)c2ccc(Nc3ccnc(C(F)(F)F)c3)cc2)c1O
A) 7.55% (active)

Q) # growth lookup, item O=C(/C=C/c1ccccc1)n1c(-c2ccccc2)nc2ccccc21
A) 109% (inactive)

Q) # growth lookup, item NS(=O)(=O)c1ccc(N2N=C(c3cccs3)CC2c2ccccc2O)cc1 (configuration not stated)
A) 3.06% (active)

Q) # growth lookup, item COc1ccc2[nH]cc(/C=C3\C(=O)Nc4ccccc43)c2c1
A) 17.9% (inactive)
